# Test system: PRKACA-PRKAR2A interaction (SmBiT-PRKACA / LgBiT-PRKAR2A), protein kinase A
# Design: NanoLuc complementation counter-screen in cell extract, PRKACA with PRKAR2A, loss of luminescence, detects NanoLuc interference
# measurement_context: counter-screen for NanoLuc interference; 0.5 h, 20 µM; inhibitor
Decision: Inh (PKA) >= 20% yields MET, all other cases yield NOT MET.

>>> cat("CC(=O)c1cc2c(o1)C(=O)c1ccccc1C2=O [UM0142718:01, Napabucasin]")
"NOT MET"
>>> cat("O[C@H]1[C@H](O)[C@@H](O)[C@H](O)[C@@H](O)[C@H]1O [UM0142814:01, myo-Inositol]")
"NOT MET"
>>> cat("CCCS(=O)(=O)Nc1ccc(F)c(C(=O)c2c[nH]c3ncc(-c4ccc(Cl)cc4)cc23)c1F [UM0128310:03, Vemurafenib (PLX4032, RG7204)]")
"MET"
>>> cat("CC(=O)/N=c1/sc(S(N)(=O)=O)nn1C [UM0132958:02, Methazolamide]")
"NOT MET"

API: above_or_equal(metric=Inh (PKA), cutoff=20%) for item COCCOC(=O)C1=C(C)NC(C)=C(C(=O)OC/C=C/c2ccccc2)C1c1cccc([N+](=O)[O-])c1 (centres unmarked) [UM0133650:02, Cilnidipine]
MET

Can Cc1nc(-c2ccc(OCC(C)C)c(C#N)c2)sc1C(=O)O [UM0141917:01, Febuxostat] be said to have Inh (PKA) at or above 20%?
NOT MET

###

# Test system: PRKACA-PRKAR2A interaction (SmBiT-PRKACA / LgBiT-PRKAR2A), protein kinase A
# Design: NanoLuc complementation counter-screen in cell extract, PRKACA with PRKAR2A, loss of luminescence, detects NanoLuc interference
# measurement_context: counter-screen for NanoLuc interference; 0.5 h, 20 µM; inhibitor
Where a name gives a salt, the structure may show the parent alone.
property_label: Inh (PKA) (%)
Write the answer as a number in %, unit excluded.

// solved cases for Inh (PKA) follow
>>> numeric_readout("CNC(=O)c1nn(C)c2c1C(C)(C)Cc1cnc(Nc3ccc(N4CCN(C)CC4)cc3)nc1-2")
8.149
>>> numeric_readout("N#Cc1c(-c2ccccc2)cc(-c2cc(Br)ccc2O)[nH]c1=O")
47.09
>>> numeric_readout("COc1ccc(-c2ccccc2)cc1NS(=O)(=O)c1cc(Cl)cc(Cl)c1O")
65.56

Param item = Cc1ncc(C[n+]2csc(CCO)c2C)c(N)n1 [UM0118406:03, Thiamine HCl (Vitamin B1)] ; retrieve measured Inh (PKA).
-1.554

Any idea what its Inh (PKA) is? The molecule is COc1ccc2cc(-c3nc(-c4ccc([S+](C)[O-])cc4)[nH]c3-c3ccncc3)ccc2c1 (stereo not shown)
68.85

###

# Tested on: PRKACA-PRKAR2A interaction (SmBiT-PRKACA / LgBiT-PRKAR2A), protein kinase A
# Parameters: NanoLuc complementation counter-screen in cell extract, PRKACA with PRKAR2A, loss of luminescence, detects NanoLuc interference
# measurement_context: counter-screen for NanoLuc interference; 0.5 h, 20 µM; inhibitor
Structures can show the parent of a compound that is named as a salt.
Documented Inh (PKA) across a set of compounds
Answer format reminder: number followed by unit.

Use the examples below as a reference point.
>>> result("CC(C)(C)C#Cc1cc(N(C(=O)[C@H]2CC[C@H](C)CC2)[C@H]2CC[C@H](O)CC2)c(C(=O)O)s1 [UM0141672:01, VX-222 (VCH-222, Lomibuvir)]")
"8.385%"
>>> result("CCCCc1oc2ccc(NS(C)(=O)=O)cc2c1C(=O)c1ccc(OCCCN(CCCC)CCCC)cc1 [UM0141544:01, Dronedarone]")
"6.648%"
>>> result("O=S(=O)(N=Cc1c(O)ccc2ccccc12)c1cccs1 [UM0142640:01, STF 083010]")
"10.66%"
>>> result("C[C@@H]1O[C@@H](CC(=O)O)CC2=C1C(=O)c1c(O)cccc1C2=O [UM0141940:01, Nanaomycin A]")
"18.84%"
>>> result("O=C(O)c1ccc(Nc2ncc3c(n2)-c2ccc(Cl)cc2C(c2c(F)cccc2F)=NC3)cc1 [UM0141711:01, MLN8054]")
"70.21%"

What value of Inh (PKA) has been reported for the following compound? Fc1ccc(C(c2ccc(F)cc2)N2CCN(C/C=C/c3ccccc3)CC2)cc1 [flunarizine]
10.34%

Field request: Inh (PKA) | item: C=CC(=O)Nc1ccc(CN2C(=O)N(c3cc(OC)cc(OC)c3)Cc3cnc(Nc4ccc(N5CCN(C)CC5)cc4)nc32)cc1 [UM0142120:01, FIIN-2]
9.452%

// Inh (PKA) lookup, key: Nc1ncnc2c1C(=O)N(c1ccc([C@H]3CC[C@H](CC(=O)O)CC3)cc1)CCO2 [UM0141824:01, PF-04620110]
1.569%

Any idea what its Inh (PKA) is? The compound is c1ccc2c(Oc3nc(Nc4ccc(N5CCOCC5)cc4)c4ncn(C5CCCCC5)c4n3)cccc2c1 [UM0141962:01, Purmorphamine]
11.44%

Inh (PKA) for C[C@]12C=CC(=O)N[C@@H]1CC[C@@H]1[C@@H]2CC[C@]2(C)[C@@H](C(=O)Nc3cc(C(F)(F)F)ccc3C(F)(F)F)CC[C@@H]12 [UM0141408:01, Dutasteride] ?
7.996%

What Inh (PKA) value was documented for this compound, CCOC(=O)CCNc1cc(N2CCc3ccccc3CC2)nc(-c2ccccn2)n1 [UM0141754:01, GSK J4 HCl] ?
11.33%

###

Inhibition percent values by entry
# tested_target: MeCP2-TBL1 interaction (MeCP2-SmBiT / TBL1-LgBiT) (Mus musculus, UniProt Q9QXE7)
# Construct: expressed in transfected cells; crude lysate used as a cell-free assay
# Sequence (Q9QXE7 166-527): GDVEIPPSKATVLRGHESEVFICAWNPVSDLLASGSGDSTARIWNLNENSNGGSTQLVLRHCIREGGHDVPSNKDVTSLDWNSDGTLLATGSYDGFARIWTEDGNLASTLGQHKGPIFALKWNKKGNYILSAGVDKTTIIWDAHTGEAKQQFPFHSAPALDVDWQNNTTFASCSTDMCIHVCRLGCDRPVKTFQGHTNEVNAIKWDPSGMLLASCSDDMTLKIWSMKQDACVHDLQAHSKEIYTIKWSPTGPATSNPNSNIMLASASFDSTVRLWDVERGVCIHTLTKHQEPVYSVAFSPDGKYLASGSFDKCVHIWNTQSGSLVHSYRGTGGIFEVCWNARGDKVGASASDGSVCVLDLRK
# assay_name: MeCP2-TBL1 NanoLuc luciferase complementation assay (cell-free, extracts of transfected HEK293 cells);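 further: each compound tested at 20 µM final concentration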
# Format: binding, human
# measurement_context: primary screen of the Asinex library, sheet "Sargen output Asinex library", one well per compound, Batch Ref. 1
Value expressed in %; do not type the unit.

Some solved cases for reference:
>>> numeric_readout("COc1cccc([C@@H]2C[C@]3(C)NC(=O)CCCC[C@@H]3N2CC(=O)NCCc2nc3ccccc3[nH]2)c1")
0.09
>>> numeric_readout("Cc1cc(C)nc(NCCC(=O)N2[C@H](Cc3ccccc3)C[C@]3(C)NC(=O)CCC[C@H]23)n1")
-1.66

# get_value(readout='Inhibition percent', item= `COc1cccc2c1OC1(CCN(Cc3cccc(O)c3)CC1)[C@H]1CCCO[C@H]21` )
6.42

Value lookup for Inhibition percent; key = O=C(CN1CCC(C2CCCCN2C(=O)C2CCN(Cc3ccccn3)CC2)CC1)N1CCCC1 (stereo not drawn)
-3.25

Can you look up the measured Inhibition percent of COc1ccc(OC)c(-c2cc(C(=O)N3CCCCC3c3ncc(Cc4ccccc4)o3)[nH]n2)c1 (stereo not drawn) for me?
18.69

Query (molecule): `COc1ccc(C)cc1NC(=O)CN1CC[C@@]2(NC(C)=O)CN(C(C)=O)[C@H](c3ccccc3)[C@H]2C1` ; field requested: Inhibition percent
0.56

Field request: Inhibition percent | item: Cc1nc2c(c(Nc3ccccn3)n1)CCN(C(=O)C1CCCCN1C(=O)OC(C)(C)C)C2 (stereo not drawn)
-1.68

Endpoint output: Inhibition percent of O=C1CC(C(=O)N2CCNC(=O)C2Cc2cccc(-c3ccccc3)c2)c2ccccc2N1 (stereo not drawn) . Value?
4.73

Form field: reported Inhibition percent of `CC(=O)N[C@H]1C[C@@H](C(=O)N(C)C)N(CC(=O)Nc2cccc3c2CCCC3)[C@H]1c1ccccc1`
-0.19

###

# Test system: PRKACA-PRKAR2A interaction (SmBiT-PRKACA / LgBiT-PRKAR2A), protein kinase A
# Parameters: NanoLuc complementation counter-screen in cell extract, PRKACA with PRKAR2A, loss of luminescence, detects NanoLuc interference
# measurement_context: counter-screen for NanoLuc interference; 0.5 h, 20 µM; inhibitor
property_label: Inh (PKA) (%)
# output: bare number, implied unit %

May I ask what Inh (PKA) has been recorded for CC(=O)Nc1ccc(C(=O)Nc2ccccc2N)cc1 [UM0128575:02, CI994 (Tacedinaline)] ?
-1.752

Which Inh (PKA) reading was recorded for the molecule CC[C@@]1(O)C(=O)OCc2c1cc1n(c2=O)Cc2cc3ccccc3nc2-1 [UM0133648:02, Camptothecin] ?
1.997

What value of measured Inh (PKA) is listed for O=C1CCc2ccc(OCCCCN3CCN(c4cccc(Cl)c4Cl)CC3)cc2N1 [UM0133361:02, Aripiprazole] ?
19.63

// provenance: paper PMC9995496
